- ASSAYED_SYSTEM: Solute carrier family 28 member 3 (Homo sapiens, UniProt Q9HAS3)
- Sequence (Q9HAS3 whole entry): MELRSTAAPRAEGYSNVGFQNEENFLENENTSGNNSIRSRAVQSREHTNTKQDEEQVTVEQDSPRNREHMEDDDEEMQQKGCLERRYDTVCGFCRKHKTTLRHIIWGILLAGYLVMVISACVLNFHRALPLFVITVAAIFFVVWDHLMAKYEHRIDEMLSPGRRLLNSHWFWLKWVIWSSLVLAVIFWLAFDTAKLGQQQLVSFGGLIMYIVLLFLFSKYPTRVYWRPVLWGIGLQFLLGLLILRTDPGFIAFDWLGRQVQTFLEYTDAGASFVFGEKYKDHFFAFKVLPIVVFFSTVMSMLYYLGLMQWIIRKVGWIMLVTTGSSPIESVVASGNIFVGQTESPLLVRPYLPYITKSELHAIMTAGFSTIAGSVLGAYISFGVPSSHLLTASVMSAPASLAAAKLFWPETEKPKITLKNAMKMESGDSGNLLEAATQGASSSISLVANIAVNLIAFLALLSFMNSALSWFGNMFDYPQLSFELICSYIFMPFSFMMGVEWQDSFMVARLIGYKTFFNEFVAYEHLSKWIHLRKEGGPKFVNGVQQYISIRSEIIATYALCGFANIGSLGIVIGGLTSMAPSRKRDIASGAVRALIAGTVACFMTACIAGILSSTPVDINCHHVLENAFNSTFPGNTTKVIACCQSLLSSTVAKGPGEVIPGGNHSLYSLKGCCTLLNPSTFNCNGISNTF
- METHOD_NOTES: Binding affinity to human recombinant CNT3 expressed in pig PK15NTD cells assessed as [3H]uridine uptake by beta-scintillation counter
MEASUREMENT_KIND: Ki (µM)

| STRUCTURE_STRING | UNITS_TEXT | RECORDED_MEASUREMENT |
| --- | --- | --- |
| CC(=O)c1c(O)cccc1O[C@@H]1O[C@H](CO)[C@@H](O)[C@H]1O | µM | 42.1 |

I: Oc1ccc(CCCc2c(O)cc(O)cc2O)cc1
II: CC(=O)c1c(O)cc(O)cc1O[C@@H]1O[C@H](CO)[C@@H](O)[C@H]1O
III: CC(=O)c1c(O)cccc1O[C@H]1O[C@H](CO)[C@@H](O)[C@H](O)[C@H]1O
IV: O=C(CCc1ccc(O)cc1)c1c(O)cc(O)cc1O[C@@H]1O[C@H](CO)[C@@H](O)[C@H]1O
*Q* Would you mind ranking these molecules by ascending Ki? Ranked list of labels, please, in the requested order.
*A* IV, II, I, III
(IV: 2.88 µM, II: 12.4 µM, I: 30 µM, III: 53.9 µM)
